Tested on: H4
Experiment: Decrease in FYVE-RFP+ vesicle intensity per cell in human H4 cells after 8 hrs relative to control
Assay type: functional
Parameters: concentration or dose not given beside the values
Lab note: compare Activity with 40%, writing 1.0 if less and 0.0 if equal or more.

MOLECULE	STUDY SYSTEM	LABEL VALUE
CC(C)COCC(CN(Cc1ccccc1)c1ccccc1)N1CCCC1 (stereo not drawn)	H4	1.0
CC(C)[C@@H](O)CC[C@@H](C)[C@H]1CC[C@H]2[C@@H]3CC=C4C[C@@H](O)CC[C@]4(C)[C@H]3CC[C@]12C	H4	1.0
CC[C@@]1([C@@H]2O[C@@H]([C@H]3O[C@@](O)(CO)[C@H](C)C[C@@H]3C)C[C@@H]2C)CC[C@H]([C@]2(C)CC[C@]3(C[C@H](O)[C@@H](C)[C@@H]([C@@H](C)[C@@H](OC)[C@H](C)C(=O)O)O3)O2)O1	H4	0.0
O[C@H]1[C@H](O)[C@@H](O)CN2CC[C@H](O)[C@H]12	H4	1.0
CCCC[C@@H](C=O)NC(=O)[C@H](CC(C)C)NC(=O)OCc1ccccc1	H4	0.0
Fc1ccc(C(c2ccc(F)cc2)N2CCN(C/C=C/c3ccccc3)CC2)cc1	H4	0.0
CC(=O)C1=C(O)[C@@H]2[C@H]3c4c[nH]c5cccc(c45)C[C@H]3C(C)(C)N2C1=O	H4	1.0
COc1ccc2c(c[n+](C)c3c4cc5c(cc4ccc23)OCO5)c1OC.[Cl-] [CHELERYTHRINE CHLORIDE]	H4	1.0
COc1cc2c3cc1Oc1c(OC)c(OC)cc4c1[C@@H](Cc1ccc(OC(=O)c5ccc([N+](=O)[O-])cc5)c(c1)Oc1ccc(cc1)C[C@@H]3N(C)CC2)N(C)CC4	H4	0.0
CC1(C)C(C=C(Cl)Cl)C1C(=O)OC(C#N)c1cccc(Oc2ccccc2)c1 (stereo not drawn)	H4	0.0

====

Tested on: H4
Experiment: Decrease in FYVE-RFP+ vesicle intensity per cell in human H4 cells after 2 hrs relative to control
Format: functional
Design: concentration or dose not given beside the values
ENDPOINT LABEL: Activity (%)

> print(dat)
                         structure.notation  readout.value
1  CNC(=O)[C@H](Cc1c[nH]c2ccccc12)NC(=O)[C@@H](CC(=O)NO)CC(C)C          30.69
2  OCCN(CCO)c1nc(N2CCCCC2)c2nc(N(CCO)CCO)nc(N3CCCCC3)c2n1          32.22
3    O=C(Nc1ccccc1)c1cc([N+](=O)[O-])ccc1Cl          40.32
4  Fc1ccc(C(c2ccc(F)cc2)N2CCN(C/C=C/c3ccccc3)CC2)cc1          53.92
5  CCOC(=O)[C@H]1O[C@@H]1C(=O)N[C@@H](CC(C)C)C(=O)NCCC(C)C          48.31

====

System: H4
Experiment: Increase in long-lived protein degradation in human H4 cells after 1 hr relative to control
Type: functional
Parameters: concentration or dose not given beside the values
Where a SMILES comes first, the peptide text is derived from it. [ ]: non-standard residue; d: D form. Nle = CCCC[C@H](N)C(=O)O
Known Activity of a selection of molecules

MOLECULE	STUDY SYSTEM	Activity, %
C/C=C/C[C@@H](C)[C@@H](O)[C@H]1C(=O)N[C@@H](CC)C(=O)N(C)CC(=O)N(C)[C@@H](CC(C)C)C(=O)N[C@@H](C(C)C)C(=O)N(C)[C@@H](CC(C)C)C(=O)N[C@@H](C)C(=O)N[C@H](C)C(=O)N(C)[C@@H](CC(C)C)C(=O)N(C)[C@@H](CC(C)C)C(=O)N(C)[C@@H](C(C)C)C(=O)N1C	H4	114.15
COc1ccc(CCN(C)CCC[C@](C#N)(c2ccc(OC)c(OC)c2)C(C)C)cc1OC	H4	103.33
CC[C@@]1([C@@H]2O[C@@H]([C@H]3O[C@@](O)(CO)[C@H](C)C[C@@H]3C)C[C@@H]2C)CC[C@H]([C@]2(C)CC[C@]3(C[C@H](O)[C@@H](C)[C@@H]([C@@H](C)[C@@H](OC)[C@H](C)C(=O)O)O3)O2)O1	H4	107.28
CC1=C2C[C@H]3[C@@H](CC=C4C[C@@H](O)CC[C@@]43C)[C@@H]2CC[C@]12O[C@@H]1C[C@H](C)CN[C@H]1[C@H]2C	H4	91.74
O=c1[nH]c2ccccc2n1C1CCN(CCCC(c2ccc(F)cc2)c2ccc(F)cc2)CC1 [PIMOZIDE]	H4	129.13
CCCC[C@@H](C=O)NC(=O)[C@H](CC(C)C)NC(=O)[C@H](CC(C)C)NC(C)=O (Ac-Leu-Leu-[Nle]-aldehyde)	H4	124.56
CCN(CC)CCCCCCCCOC(=O)c1cc(OC)c(OC)c(OC)c1	H4	106.69
CC(C)(c1ccc(OCC2CO2)cc1)c1ccc(OCC2CO2)cc1 (configuration not stated)	H4	96.5
COC(=O)C1=C(C)NC(C)=C(C(=O)OCCCN2CCC(c3ccccc3)(c3ccccc3)CC2)[C@H]1c1cccc([N+](=O)[O-])c1	H4	71.65
CC(=O)C1=C(O)[C@@H]2[C@H]3c4c[nH]c5cccc(c45)C[C@H]3C(C)(C)N2C1=O	H4	103.58
CN(C)C(=O)C(CCN1CCC(O)(c2ccc(Cl)cc2)CC1)(c1ccccc1)c1ccccc1 [LOPERAMIDE]	H4	78.7
C=C[C@H]1CN2CC[C@H]1C[C@H]2[C@H](O)c1ccnc2ccc(OC)cc12	H4	94.35
